Reference for the values: patent US20110195929A1

System: β-D-glucosidase
Experiment: Glycosidase inhibition: β-D-glucosidase
Type: biochemical, Almonds (Prunus sp.)
Details: 1 mg/ml; pH 5.0, 20° C
Protocol: Inhibition of the N-linked glycan trimming enzymes alpha-Glucosidases I and II or alpha-Mannosidases I and II are thought to be related to the anti-viral activity of castanospermine (Compound 104) and 1-deoxynojirimycin (Compound 193). […] All enzymes were purchased from Sigma, as were the appropriate p-nitrophenyl substrates. Assays were carried out in microtitre plates. Enzymes were assayed in 0.1M citric acid/0.2M di-sodium hydrogen phosphate (McIlvaine) buffers at the optimum pH for the enzyme. […]
# maps each entry to its % inhibition β-glucosidase
observable: % inhibition β-glucosidase (%)

                                   molecule  reported_result
0  OC[C@H]1NC[C@H](O)[C@@H](O)[C@@H]1O [Compound 193, 1-deoxynojirimycin, reference compound]               64
1  CC[C@@H](O)[C@H]1N[C@H](CO)[C@@H](O)[C@@H]1O              100
2               OC[C@@H]1NC[C@H](O)[C@@H]1O               22
3  O[C@H]1[C@H](O)[C@@H](O)CN2CC[C@H](O)[C@H]12 [Compound 104, Castanospermine, reference compound]               88
4  CC(O)[C@H](O)[C@H]1N[C@H](CO)[C@@H](O)[C@@H]1O (stereo partly drawn)               93
5  CC[C@@H]1N[C@@H](CO)[C@H](O)[C@@H](O)[C@@H]1O               28

----------
Target: α-D-galactosidase (Coffea arabica)
Construct: purchased Sigma
Sequence (Q42656 16-378): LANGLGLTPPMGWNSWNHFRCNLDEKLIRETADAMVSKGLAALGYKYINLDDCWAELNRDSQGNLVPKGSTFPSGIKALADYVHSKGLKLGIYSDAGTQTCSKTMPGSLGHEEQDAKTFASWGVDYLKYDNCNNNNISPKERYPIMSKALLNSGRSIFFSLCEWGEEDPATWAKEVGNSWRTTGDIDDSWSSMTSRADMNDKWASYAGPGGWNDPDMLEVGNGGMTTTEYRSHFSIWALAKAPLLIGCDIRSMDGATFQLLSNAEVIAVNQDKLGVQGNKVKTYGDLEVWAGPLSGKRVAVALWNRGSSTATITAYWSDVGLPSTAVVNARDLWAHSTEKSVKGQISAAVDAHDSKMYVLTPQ
Test: Glycosidase inhibition: α-D-galactosidase
Format: biochemical, Green coffee beans (Coffea sp.)
Conditions: 1 mg/ml; pH 6.5, 20° C
observable: inhibition at 1000 µg/mL (%)

                                   molecule  reported_result
0               OC[C@@H]1NC[C@H](O)[C@@H]1O               32
1  CC[C@@H]1N[C@@H](CO)[C@H](O)[C@@H](O)[C@@H]1O                0
2  CC(O)[C@H](O)[C@H]1N[C@H](CO)[C@@H](O)[C@@H]1O (some centres unmarked)                0
3  CC[C@@H](O)[C@H]1N[C@H](CO)[C@@H](O)[C@@H]1O                0
4  O[C@H]1[C@H](O)[C@@H](O)CN2CC[C@H](O)[C@H]12 [Compound 104, Castanospermine, reference compound]                0

----------
System: N-acetyl-β-D-glucosaminidase
Assay: Glycosidase inhibition: N-acetyl-β-D-glucosaminidase
Assay type: biochemical, Bovine kidney
Conditions: 1 mg/ml; pH 4.25, 20° C
observable: % inhibition N-acetyl-β-gluc (%)

>>> df
                                   molecule                  study_system  reported_result
0  O[C@H]1[C@H](O)[C@@H](O)CN2CC[C@H](O)[C@H]12 [Compound 104, Castanospermine, reference compound]  N-acetyl-β-D-glucosaminidase                0
1               OC[C@@H]1NC[C@H](O)[C@@H]1O  N-acetyl-β-D-glucosaminidase               19
2  CC(O)[C@H](O)[C@H]1N[C@H](CO)[C@@H](O)[C@@H]1O (stereo partly drawn)  N-acetyl-β-D-glucosaminidase                0
3  CC[C@@H]1N[C@@H](CO)[C@H](O)[C@@H](O)[C@@H]1O  N-acetyl-β-D-glucosaminidase                0
4  OC[C@H]1NC[C@H](O)[C@@H](O)[C@@H]1O [Compound 193, 1-deoxynojirimycin, reference compound]  N-acetyl-β-D-glucosaminidase                0
5  CC[C@@H](O)[C@H]1N[C@H](CO)[C@@H](O)[C@@H]1O  N-acetyl-β-D-glucosaminidase               20

----------
# maps each entry to its IC50
System: BVDV
Experiment: BVDV plaque inhibition assay
Type: cell-based, bovine diarrhoea virus (BVDV)
Conditions: Bovine viral diarrhea virus isolates and strains, in Bos taurus; Examples 1-3; 50% reduction of plaque number or size, MDBK cells; read-out: IC50 (μg/ml)
observable: IC50 (µg/mL)

In [3]: df
Out[3]:
                                   molecule  study_system  reported_result
0  O[C@H]1[C@H](O)[C@@H](O)CN2CC[C@H](O)[C@H]12 [Compound 104, Castanospermine, reference compound]          BVDV             15.6
1  CC[C@@H](O)[C@H]1N[C@H](CO)[C@@H](O)[C@@H]1O          BVDV             16.7
2  CC(O)[C@H](O)[C@H]1N[C@H](CO)[C@@H](O)[C@@H]1O (stereo partly shown)          BVDV             87.2
3               OC[C@@H]1NC[C@H](O)[C@@H]1O          BVDV             57.6

----------
Molecular target: α-D-glucosidase (Oryza sativa subsp. japonica)
Construct: purchased Sigma
Sequence (Q653V7 34-885): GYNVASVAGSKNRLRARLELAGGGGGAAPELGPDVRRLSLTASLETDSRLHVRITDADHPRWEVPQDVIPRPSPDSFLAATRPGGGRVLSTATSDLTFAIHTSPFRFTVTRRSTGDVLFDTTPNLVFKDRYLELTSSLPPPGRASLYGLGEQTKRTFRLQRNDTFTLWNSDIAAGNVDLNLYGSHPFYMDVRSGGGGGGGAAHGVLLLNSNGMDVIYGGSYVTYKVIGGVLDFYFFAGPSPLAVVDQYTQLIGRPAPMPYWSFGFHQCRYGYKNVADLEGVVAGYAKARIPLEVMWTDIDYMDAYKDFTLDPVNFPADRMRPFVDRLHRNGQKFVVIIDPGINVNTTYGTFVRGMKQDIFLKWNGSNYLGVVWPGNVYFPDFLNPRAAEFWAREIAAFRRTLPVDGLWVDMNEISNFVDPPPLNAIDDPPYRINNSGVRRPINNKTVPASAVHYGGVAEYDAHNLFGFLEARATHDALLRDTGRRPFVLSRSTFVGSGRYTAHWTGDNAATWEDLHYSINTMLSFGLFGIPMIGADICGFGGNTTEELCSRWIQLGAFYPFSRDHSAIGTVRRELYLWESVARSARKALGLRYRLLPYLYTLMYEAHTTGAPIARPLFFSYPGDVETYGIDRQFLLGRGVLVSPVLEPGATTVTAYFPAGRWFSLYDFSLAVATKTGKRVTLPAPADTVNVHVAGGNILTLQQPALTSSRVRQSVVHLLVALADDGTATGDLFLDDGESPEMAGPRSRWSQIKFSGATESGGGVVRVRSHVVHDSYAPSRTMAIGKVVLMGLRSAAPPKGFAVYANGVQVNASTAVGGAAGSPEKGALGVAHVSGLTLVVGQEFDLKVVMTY
Experiment: Glycosidase inhibition: α-D-glucosidase (rice)
Assay type: biochemical, rice (Oryza sativa)
Details: 1 mg/ml; pH 6.0, 20° C; read-out: % inhibition α-gluc (rice)
Lab note: anything with inhibition at 1000 µg/mL at or over 40% counts as true (1); the rest go in false (0).

In [3]: df
Out[3]:
                                   compound   category
0  CC[C@@H]1N[C@@H](CO)[C@H](O)[C@@H](O)[C@@H]1O [Compound 23]   true (1)
1  OC[C@@H]1NC[C@H](O)[C@@H]1O [Compound 167]   true (1)
2  CC[C@@H](O)[C@H]1N[C@H](CO)[C@@H](O)[C@@H]1O [Compound 62]  false (0)
3  O[C@H]1[C@H](O)[C@@H](O)CN2CC[C@H](O)[C@H]12 [Compound 104, Castanospermine, reference compound]   true (1)

----------
# maps each entry to its % inhibition β-galactosidase
Test system: β-D-galactosidase
Experiment: Glycosidase inhibition: β-D-galactosidase
Format: biochemical, Bovine liver
Conditions: 1 mg/ml; pH 7.3, 20° C
Procedure: Inhibition of the N-linked glycan trimming enzymes alpha-Glucosidases I and II or alpha-Mannosidases I and II are thought to be related to the anti-viral activity of castanospermine (Compound 104) and 1-deoxynojirimycin (Compound 193). […] All enzymes were purchased from Sigma, as were the appropriate p-nitrophenyl substrates. Assays were carried out in microtitre plates. Enzymes were assayed in 0.1M citric acid/0.2M di-sodium hydrogen phosphate (McIlvaine) buffers at the optimum pH for the enzyme. […]
observable: % inhibition β-galactosidase (%)

In [3]: df
Out[3]:
                                   compound                    observable  reported_result
0  CC(O)[C@H](O)[C@H]1N[C@H](CO)[C@@H](O)[C@@H]1O (stereo partly drawn) [Compound 63]  % inhibition β-galactosidase               93
1  O[C@H]1[C@H](O)[C@@H](O)CN2CC[C@H](O)[C@H]12 [Compound 104, Castanospermine, reference compound]  % inhibition β-galactosidase               16
2  CC[C@@H]1N[C@@H](CO)[C@H](O)[C@@H](O)[C@@H]1O [Compound 23]  % inhibition β-galactosidase               53
3  OC[C@H]1NC[C@H](O)[C@@H](O)[C@@H]1O [Compound 193, 1-deoxynojirimycin, reference compound]  % inhibition β-galactosidase                0
4  CC[C@@H](O)[C@H]1N[C@H](CO)[C@@H](O)[C@@H]1O [Compound 62]  % inhibition β-galactosidase              100
5  OC[C@@H]1NC[C@H](O)[C@@H]1O [Compound 167]  % inhibition β-galactosidase                0

----------
Test system: Naringinase
Assay: Glycosidase inhibition: Naringinase
Assay type: biochemical, Penecillium decumbens
Conditions: 1 mg/ml; pH 4.0, 20° C
observable: % inhibition Naringinase (%)

>>> df
                                   molecule  reported_result
0  OC[C@H]1NC[C@H](O)[C@@H](O)[C@@H]1O [Compound 193, 1-deoxynojirimycin, reference compound]                0
1               OC[C@@H]1NC[C@H](O)[C@@H]1O               50
2  CC(O)[C@H](O)[C@H]1N[C@H](CO)[C@@H](O)[C@@H]1O (stereo partly drawn)                0
3  CC[C@@H]1N[C@@H](CO)[C@H](O)[C@@H](O)[C@@H]1O                0
4  O[C@H]1[C@H](O)[C@@H](O)CN2CC[C@H](O)[C@H]12 [Compound 104, Castanospermine, reference compound]               39
5  CC[C@@H](O)[C@H]1N[C@H](CO)[C@@H](O)[C@@H]1O               37
